MEASUREMENT NOTES: Half life time was evaluated at 1 mg/kg of iv administration in Sprague-Dawley rats
Format: ADME, organism-based
Set-up: dose 1 mg/kg, route intravenous
CONDITION SUMMARY: rat, in vivo
MEASUREMENT NAME: half-life (min)

[
  {
    "COMPOUND": "O=C(Nc1ccc(C[C@H](NC(=O)C2(S(=O)(=O)c3ccccc3)CCOCC2)C(=O)O)cc1)c1c(Cl)cccc1Cl",
    "QUANTITATIVE RESULT": 36
  }
]

P = COc1cccc(OC)c1-c1ccc(C[C@H](NC(=O)C2(S(=O)(=O)c3ccccc3)CCCNC2)C(=O)O)cc1 (some centres undefined)
Q = COc1cccc(OC)c1-c1ccc(C[C@H](NC(=O)C2(S(=O)(=O)c3ccccc3)CCOCC2)C(=O)O)cc1
R = O=C(Nc1ccc(C[C@H](NC(=O)C2(S(=O)(=O)c3ccccc3)CCCNC2)C(=O)O)cc1)c1c(Cl)cccc1Cl (some centres undefined)
[Q] Arrange these compounds by their half-life, starting with the largest number. Give me the labels in the order the question wants.
[A] Q, P, R

* * *

MEASUREMENT NOTES: Plasma clearance was evaluated at 1 mg/kg of iv administration in Sprague-Dawley rats
Assay type: ADME, organism-based
Design: dose 1 mg/kg, route intravenous
CONDITION SUMMARY: rat, read-out: Clp
MEASUREMENT NAME: clearance (mL/min/kg)

[
  {
    "COMPOUND": "COc1cccc(OC)c1-c1ccc(C[C@H](NC(=O)C2(S(=O)(=O)c3ccccc3)CCCNC2)C(=O)O)cc1 (some centres undefined)",
    "UNIT": "mL/min/kg",
    "clearance": 46
  },
  {
    "COMPOUND": "O=C(Nc1ccc(C[C@H](NC(=O)C2(S(=O)(=O)c3ccccc3)CCOCC2)C(=O)O)cc1)c1c(Cl)cccc1Cl",
    "UNIT": "mL/min/kg",
    "clearance": 48
  }
]

I = O=C(Nc1ccc(C[C@H](NC(=O)C2(S(=O)(=O)c3ccccc3)CCCNC2)C(=O)O)cc1)c1c(Cl)cccc1Cl (some centres undefined)
II = COc1cccc(OC)c1-c1ccc(C[C@H](NC(=O)C2(S(=O)(=O)c3ccccc3)CCOCC2)C(=O)O)cc1
[Q] Lab log: flag the item ( I or II ) with the smaller clearance figure. Kindly state the label of the option you pick.
[A] I
(I: 78 mL/min/kg, II: 133 mL/min/kg)

* * *

TARGET: Integrin alpha-4/beta-7 (Homo sapiens, UniProt P13612+P26010)
Sequence (P13612 whole entry): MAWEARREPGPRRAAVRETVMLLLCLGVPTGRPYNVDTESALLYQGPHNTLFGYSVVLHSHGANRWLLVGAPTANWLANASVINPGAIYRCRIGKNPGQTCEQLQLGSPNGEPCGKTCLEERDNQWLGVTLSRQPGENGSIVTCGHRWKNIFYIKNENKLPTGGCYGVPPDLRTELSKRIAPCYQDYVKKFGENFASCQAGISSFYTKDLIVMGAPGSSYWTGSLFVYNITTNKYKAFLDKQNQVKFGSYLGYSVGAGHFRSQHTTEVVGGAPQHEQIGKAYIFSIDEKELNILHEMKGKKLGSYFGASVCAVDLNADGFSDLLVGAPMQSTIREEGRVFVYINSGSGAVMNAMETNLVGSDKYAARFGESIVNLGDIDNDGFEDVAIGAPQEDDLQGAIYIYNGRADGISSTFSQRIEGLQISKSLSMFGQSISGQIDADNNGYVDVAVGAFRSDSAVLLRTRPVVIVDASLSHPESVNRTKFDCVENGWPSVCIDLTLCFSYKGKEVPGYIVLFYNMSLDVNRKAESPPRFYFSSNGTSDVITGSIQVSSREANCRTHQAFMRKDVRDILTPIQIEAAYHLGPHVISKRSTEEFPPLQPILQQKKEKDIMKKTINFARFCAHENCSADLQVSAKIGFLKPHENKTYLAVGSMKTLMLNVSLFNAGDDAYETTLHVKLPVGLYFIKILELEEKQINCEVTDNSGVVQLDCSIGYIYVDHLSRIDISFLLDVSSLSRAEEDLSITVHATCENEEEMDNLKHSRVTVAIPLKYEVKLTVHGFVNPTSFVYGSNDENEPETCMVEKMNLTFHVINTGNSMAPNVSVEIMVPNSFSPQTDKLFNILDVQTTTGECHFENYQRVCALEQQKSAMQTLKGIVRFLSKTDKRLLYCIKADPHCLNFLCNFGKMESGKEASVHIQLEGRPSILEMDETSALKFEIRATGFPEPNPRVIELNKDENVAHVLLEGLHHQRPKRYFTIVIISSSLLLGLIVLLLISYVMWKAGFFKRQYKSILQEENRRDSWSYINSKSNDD
Sequence (P26010 whole entry): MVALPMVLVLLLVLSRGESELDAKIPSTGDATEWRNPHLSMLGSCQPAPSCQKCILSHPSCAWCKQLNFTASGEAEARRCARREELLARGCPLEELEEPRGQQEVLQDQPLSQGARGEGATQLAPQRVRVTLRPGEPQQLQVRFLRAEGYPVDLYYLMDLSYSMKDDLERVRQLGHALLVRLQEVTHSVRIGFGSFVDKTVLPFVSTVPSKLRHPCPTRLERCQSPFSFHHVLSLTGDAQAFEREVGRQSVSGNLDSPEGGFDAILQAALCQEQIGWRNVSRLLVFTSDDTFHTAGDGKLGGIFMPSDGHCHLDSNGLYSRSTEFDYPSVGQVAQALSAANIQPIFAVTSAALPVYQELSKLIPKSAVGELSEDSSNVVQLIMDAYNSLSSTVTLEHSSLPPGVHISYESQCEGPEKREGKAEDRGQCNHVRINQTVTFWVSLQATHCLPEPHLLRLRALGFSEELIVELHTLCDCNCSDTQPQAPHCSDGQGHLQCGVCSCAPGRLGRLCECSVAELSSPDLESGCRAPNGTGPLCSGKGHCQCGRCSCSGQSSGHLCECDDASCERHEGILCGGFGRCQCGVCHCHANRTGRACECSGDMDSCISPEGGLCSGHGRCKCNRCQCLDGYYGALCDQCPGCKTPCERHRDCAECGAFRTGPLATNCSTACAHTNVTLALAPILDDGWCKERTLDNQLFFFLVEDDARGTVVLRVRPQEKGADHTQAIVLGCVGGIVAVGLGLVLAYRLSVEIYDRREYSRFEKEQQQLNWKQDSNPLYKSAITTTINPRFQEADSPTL
MEASUREMENT NOTES: Inhibition of [125I]-VCAM-Ig binding to human integrin alpha4-beta7 receptor in RPMI-8866 cells
Format: cell-based
pIC50: −log10 of the molar value.
MEASUREMENT NAME: pIC50

Consider the worked cases shown below.
[
  {
    "SMILES STRUCTURE": "COc1ccccc1-c1ccc(C[C@H](NC(=O)C2(S(=O)(=O)c3ccc(Cl)cc3)CCCCC2)C(=O)O)cc1",
    "TARGET": "Integrin alpha-4/beta-7 (Homo sapiens, UniProt P13612+P26010)",
    "pIC50": 7.28
  },
  {
    "SMILES STRUCTURE": "COc1ccccc1-c1ccc(C[C@H](NC(=O)C2(S(=O)(=O)c3ccc(F)cc3)CCCCC2)C(=O)O)cc1",
    "TARGET": "Integrin alpha-4/beta-7 (Homo sapiens, UniProt P13612+P26010)",
    "pIC50": 7.60
  },
  {
    "SMILES STRUCTURE": "COc1ccccc1-c1ccc(C[C@H](NC(=O)C2(S(=O)(=O)c3ccccc3C)CCCCC2)C(=O)O)cc1",
    "TARGET": "Integrin alpha-4/beta-7 (Homo sapiens, UniProt P13612+P26010)",
    "pIC50": 6.83
  }
]

A = COc1ccccc1-c1ccc(C[C@H](NC(=O)C2(S(=O)(=O)c3nccn3C)CCCC2)C(=O)O)cc1
B = COc1ccccc1-c1ccc(C[C@H](NC(=O)C2(S(=O)(=O)c3ccc(C)cc3)CCCCC2)C(=O)O)cc1
[Q] Form field 'greater pIC50' accepts A or B ; which applies? Kindly state the label of the option you pick.
[A] A
